biological target: T1, recombinant human GPC3 (glypican-3) (human, UniProt P51654 25-559); assay: SPR (Biacore T200), antibody captured by anti-Fc, GPC3 injected, single-cycle kinetics, 1:1 fit; average
T1 construct: also called huGPC3; hGPC3
READOUT_NAME: pKd
Answers are plain numbers, as −log10 of the molar value.

Example results:
BINDER	READOUT_NAME	NUMERIC_VALUE
v40205, H18L6_LC_G34H mAb (antibody, human IgG1, kappa, V domains shown, no number given for this variant) VH: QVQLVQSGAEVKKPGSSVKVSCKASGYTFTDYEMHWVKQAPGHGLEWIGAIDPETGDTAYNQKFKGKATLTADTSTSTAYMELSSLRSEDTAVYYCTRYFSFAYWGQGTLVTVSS VL: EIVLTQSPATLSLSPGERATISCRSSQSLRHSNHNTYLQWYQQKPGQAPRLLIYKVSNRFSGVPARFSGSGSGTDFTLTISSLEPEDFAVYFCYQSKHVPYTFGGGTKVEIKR	pKd	7.98
v40214, H18L6_LC_N33T mAb (antibody, human IgG1, kappa, V domains shown, no number given for this variant) VH: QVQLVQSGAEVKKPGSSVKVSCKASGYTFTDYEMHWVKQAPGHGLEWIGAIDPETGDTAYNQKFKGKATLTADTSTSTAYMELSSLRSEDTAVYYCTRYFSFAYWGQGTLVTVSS VL: EIVLTQSPATLSLSPGERATISCRSSQSLRHSTGNTYLQWYQQKPGQAPRLLIYKVSNRFSGVPARFSGSGSGTDFTLTISSLEPEDFAVYFCYQSKHVPYTFGGGTKVEIKR	pKd	7.70

Returns the measured pKd for the input binder. Input: v40207, H18L6_LC_G34K mAb (antibody, human IgG1, kappa, V domains shown) VH: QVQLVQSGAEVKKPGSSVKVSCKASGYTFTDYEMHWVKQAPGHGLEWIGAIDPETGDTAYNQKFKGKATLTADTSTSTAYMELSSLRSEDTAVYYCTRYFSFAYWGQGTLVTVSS VL: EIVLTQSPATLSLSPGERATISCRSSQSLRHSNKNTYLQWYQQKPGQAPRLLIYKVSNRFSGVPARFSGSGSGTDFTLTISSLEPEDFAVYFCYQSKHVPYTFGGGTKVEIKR
7.94
